details: in ethanol, 313.1 K
measuredEndpoint: solubility (mole fraction)

1) CC(=O)Oc1cc(C)c(OC(C)=O)c2ccccc12 | 0.014

* * *

settings: in isopropanol, 308.1 K
measuredEndpoint: solubility (mole fraction)

1) CC(=O)Oc1cc(C)c(OC(C)=O)c2ccccc12 | 0.0081

* * *

settings: in n-pentyl acetate, 288.1 K
measuredEndpoint: solubility (mole fraction)

1. CC(=O)Oc1cc(C)c(OC(C)=O)c2ccccc12 | 0.0501

* * *

settings: in n-propyl acetate, 323.1 K
measuredEndpoint: solubility (mole fraction)

1. CC(=O)Oc1cc(C)c(OC(C)=O)c2ccccc12 | 0.183

* * *

details: in isopropanol, 298.1 K
measuredEndpoint: solubility (mole fraction)

1. CC(=O)Oc1cc(C)c(OC(C)=O)c2ccccc12 | 0.00444

* * *

conditions: in cyclohexanol, 313.1 K
measuredEndpoint: solubility (mole fraction)

1) CC(=O)Oc1cc(C)c(OC(C)=O)c2ccccc12 | 0.0182

* * *

conditions: in ethanol, 323.1 K
measuredEndpoint: solubility (mole fraction)

1. CC(=O)Oc1cc(C)c(OC(C)=O)c2ccccc12 | 0.0242

* * *

conditions: in n-propanol, 318.1 K
measuredEndpoint: solubility (mole fraction)

1) CC(=O)Oc1cc(C)c(OC(C)=O)c2ccccc12 | 0.0186

* * *

conditions: in methyl acetate, 313.1 K
measuredEndpoint: solubility (mole fraction)

1. CC(=O)Oc1cc(C)c(OC(C)=O)c2ccccc12 | 0.178

* * *

conditions: in n-butyl acetate, 318.1 K
measuredEndpoint: solubility (mole fraction)

1) CC(=O)Oc1cc(C)c(OC(C)=O)c2ccccc12 | 0.142

* * *

settings: in n-propyl acetate, 293.1 K
measuredEndpoint: solubility (mole fraction)

1) CC(=O)Oc1cc(C)c(OC(C)=O)c2ccccc12 | 0.0771

* * *

conditions: in n-butyl acetate, 298.1 K
measuredEndpoint: solubility (mole fraction)

1) CC(=O)Oc1cc(C)c(OC(C)=O)c2ccccc12 | 0.077

* * *

conditions: in n-propanol, 313.1 K
measuredEndpoint: solubility (mole fraction)

1) CC(=O)Oc1cc(C)c(OC(C)=O)c2ccccc12 | 0.014

* * *

conditions: in n-butanol, 313.1 K
measuredEndpoint: solubility (mole fraction)

1) CC(=O)Oc1cc(C)c(OC(C)=O)c2ccccc12 | 0.0139

* * *

conditions: in methyl acetate, 323.1 K
measuredEndpoint: solubility (mole fraction)

1. CC(=O)Oc1cc(C)c(OC(C)=O)c2ccccc12 | 0.22

* * *

conditions: in isopentanol, 323.1 K
measuredEndpoint: solubility (mole fraction)

1) CC(=O)Oc1cc(C)c(OC(C)=O)c2ccccc12 | 0.025

* * *

details: in isobutanol, 308.1 K
measuredEndpoint: solubility (mole fraction)

1) CC(=O)Oc1cc(C)c(OC(C)=O)c2ccccc12 | 0.00958

* * *

conditions: in ethyl acetate, 308.1 K
measuredEndpoint: solubility (mole fraction)

1. CC(=O)Oc1cc(C)c(OC(C)=O)c2ccccc12 | 0.135

* * *

conditions: in n-butanol, 283.1 K
measuredEndpoint: solubility (mole fraction)

1. CC(=O)Oc1cc(C)c(OC(C)=O)c2ccccc12 | 0.00257

* * *

settings: in isopropanol, 293.1 K
measuredEndpoint: solubility (mole fraction)

1) CC(=O)Oc1cc(C)c(OC(C)=O)c2ccccc12 | 0.00334

* * *

conditions: in isobutanol, 288.1 K
measuredEndpoint: solubility (mole fraction)

1. CC(=O)Oc1cc(C)c(OC(C)=O)c2ccccc12 | 0.0029
